Assay: RAM signaling pathway blockade in yeast – S. cerevisiae, Pdr1DBD-CYC8 efflux-inhibited sensitized strain, primary screen (AID 1298);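 note: 0% = DMSO untreated cells without growth and 100% = 10 µM 1-NA-PP1 full growth; higher means more yeast growth rescued from 5-FOA killing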
Settings: S. cerevisiae cbk1-as DSE1-URA3 strain, 5-FOA growth OD615, 2 d; at 50 µM; hits give high values
Measured RAM network inhibition values are reported for all entries that follow.
Numeric answer only, unit % assumed.

Here are 10 compounds together with their reported answers.
CC1Cn2c(nnc2-c2ccc(F)cc2)S1 (centres undefined) ... 3.35
CCOc1cccc(NC(=O)Cc2cccs2)c1 ... 4.72
COc1ccc(C2CC(c3ccc(C)cc3)Nc3ncnn32)cc1 (centres undefined) ... 0.05
CCCOC(=O)c1[nH]c2c(c1C)C(=O)CC(c1cc(OC)c(OC)c(OC)c1)C2 (centres undefined) ... 5.86
Cc1cc2cc(CNC(=O)c3ccc(S(=O)(=O)N4CCOCC4)cc3)ccc2[nH]1 ... 5.69
CC(=O)C1=C(C)Nc2ncnn2C1c1cccc(OCc2ccccc2)c1 (centres undefined) ... 4.69
CC1CN(S(=O)(=O)c2ccc(C(=O)Nc3nnc(-c4ccc5c(c4)CCCC5)o3)cc2)CC(C)O1 (centres undefined) ... 5.1
Cc1ccc(N2CCN(S(=O)(=O)N(C)C)CC2)c(C)c1 ... 6.03
NS(=O)(=O)c1ccc(CCNC2CC(=O)N(CCc3ccccc3)C2=O)cc1 (centres undefined) ... 1.42
CCN1CCN(C(=O)c2cc3c(-c4ccc(Cl)cc4)nn(C)c3s2)CC1 ... 1.3

Find the measured RAM network inhibition of CCC(C)(C(=O)NC1CCCCC1)N(Cc1ccco1)C(=O)CC1NC(=O)NC1=O (centres undefined) and report it. 1.8

Find the measured RAM network inhibition of COc1ccc(C2C(C(=O)N3CCC(C)CC3)c3ccccc3C(=O)N2C)cc1 (centres undefined) and report it. 7.41

Find the measured RAM network inhibition of COc1ccc(NC(=O)C2CCCN(S(=O)(=O)c3cccc4cccnc34)C2)cc1 (centres undefined) and report it. 6.27

Find the measured RAM network inhibition of Clc1c(CSc2nc3ccccc3o2)nc2sccn12 and report it. -0.26

====

Test: H69AR cell proliferation blockers – human, duplicate replicates, primary screen (AID 580);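 note: 100% = mean luminescence of untreated wells and 0% = no signal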
Conditions: H69AR lung tumor cells viability, ATP luminescence, 72 h; at 10 µM
Activity calls are given as the source filed them.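 The calls were made as follows: active = viability at or under a set limit in both replicates, limit being median viability minus 3 SD (cut at about 48% in these data, passing the limit was not always enough); inconclusive = at or under the limit in just one replicate; inactive = at or above the limit in both replicates.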
Would you mind answering with one of these outcomes? 1 (yes) = active, 0 (no) = inactive

COc1cccc(C2CC(c3ccc(C)cc3)Nc3nc(N)nn32)c1 (stereo unspecified) ... 0 (no)
CC(C)CCNC(=O)Cn1c(NCCC(C)C)nc2c1c(=O)n(C)c(=O)n2C ... 0 (no)
CNC(=O)c1ccsc1NC(=O)c1ccccc1 ... 0 (no)
C/C=C/Cn1c(SCCCc2ccccc2)nc2c1c(=O)[nH]c(=O)n2C ... 0 (no)
COc1ccc(N2CCN(C(=O)CSc3ccccc3)CC2)cc1 ... 0 (no)
CN(C)c1ccc(NC(=O)Cn2cc3c(n2)CCCC3)cc1 ... 0 (no)

State the result this test recorded for CCOC(=O)N1CCN(C(=O)COc2ccc(S(=O)(=O)NC(C)C)cc2)CC1 . 0 (no)

State the result this test recorded for Cc1cc2cc(CCNC(=O)CC(C)C)c(=O)[nH]c2cc1C . 0 (no)

State the result this test recorded for COc1cc2c(cc1OC)-c1nnc(C)n1C1(CCCC1)C2 . 0 (no)

State the result this test recorded for Cc1ccc(C(=O)Nc2c(C(=O)N3CCOCC3)cnn2-c2ccccc2)cc1 . 0 (no)

State the result this test recorded for Cc1cc(C)n2c(SCCN3C(=O)c4ccccc4C3=O)nnc2n1 . 0 (no)

State the result this test recorded for COc1ccc(S(=O)(=O)Cc2ccc(C(=O)N3CCN(c4ccccc4)CC3)o2)cc1 . 0 (no)

State the result this test recorded for COc1ccc(C2C(C(=O)N3CCC(C)CC3)c3ccccc3C(=O)N2C)cc1 (stereo unspecified) . 0 (no)

State the result this test recorded for CCCN1CC23C=CC(O2)C(C(=O)O)C3C1=O (stereo unspecified) . 0 (no)

State the result this test recorded for CCCc1cc(C(=O)Nc2sc3c(c2C#N)CCC3)no1 . 1 (yes)

State the result this test recorded for COc1cccc(-n2c(SCC(=O)N3CCCC3)nc3c([nH]c4ccccc43)c2=O)c1 . 0 (no)

====

Measured inhibition values are reported for all entries that follow.
Assay: RAM pathway blockade in budding yeast – dse1pr::URA3 reporter, 5-FOA selection, pilot screen (AID 869);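 note: 0% = DMSO wells with no growth and 100% = 10 µM 1-NA-PP1 with full growth; RAM network block rescues cells from 5-FOA so hits raise OD615 growth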
Conditions: S. cerevisiae dse1pr::URA3 5-FOA growth, OD615, 2 d; at 10 µM; hits give high values; strain carries analog-sensitive mutant Cbk1 kinase
Numeric answer only, unit % assumed.

Here are 6 compounds together with their reported answers.
Cc1cccc(-n2nc3c(c2NC(=O)CCC2CCCCC2)CS(=O)C3)c1C (centres undefined) ... 1.02
O=C(NCc1cccs1)c1ccccc1F ... 0.385
CCOC(=O)N1CCC(NC(=O)Cn2c3c(c(-c4ccccc4Cl)cc2=O)CCC3)CC1 ... 2.06
Cc1cc(N)n2nc(-c3ccccc3)cc2n1 ... 1.33
CC1CCN(C(=O)CSc2nnc(-c3ccco3)o2)CC1 ... 2.54
O=C(c1ccc(S(=O)(=O)N2CCCCC2)cc1)N1CCN=C1SCc1cccnc1 ... 1.77

Find the measured inhibition of c1ccc2c(c1)ccc1nnc(-c3ccc4c(c3)OCO4)n12 and report it. 1.31

Find the measured inhibition of Clc1cccc(-c2nnc(-c3ccccc3)o2)c1 and report it. 1.33

Find the measured inhibition of COc1ccc(S(=O)(=O)N2CCN(c3ccc(C)cc3C)CC2)cc1OC and report it. 2.41

====

Test: S. cerevisiae growth inhibition in permissive medium (OD615), pilot counter-assay for S. cerevisiae lifespan shortening project, permissive growth control (AID 705)
Settings: OD615, 24 h, at 10 µM, hits give high values
Measured growth inhibition values are reported for all entries that follow.
Numeric answer only, unit % assumed.

Find the measured growth inhibition of COC(=O)c1ccc(N=c2sc(C(=O)OC)cc(=O)n2C)cc1 and report it. -4.13

====

Measured RAM network inhibition values are reported for all entries that follow.
Assay: RAM signaling pathway blockade in yeast – S. cerevisiae, Pdr1DBD-CYC8 efflux-inhibited sensitized strain, primary screen (AID 1298);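 note: 0% = DMSO untreated cells without growth and 100% = 10 µM 1-NA-PP1 full growth; higher means more yeast growth rescued from 5-FOA killing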
Conditions: S. cerevisiae cbk1-as DSE1-URA3 strain, 5-FOA growth OD615, 2 d; at 50 µM; hits give high values
Numeric answer only, unit % assumed.

Here are 2 molecules together with their reported answers.
Cc1ccc(C(=O)Nc2c(C(=O)N3CCOCC3)cnn2-c2ccccc2)cc1 ... -1.3
CC(C)OCCCNS(=O)(=O)c1ccc2c(c1)oc(=O)n2C ... 0.04

Find the measured RAM network inhibition of CCC(=O)Nc1cccc(Br)c1 and report it. -0.05

Find the measured RAM network inhibition of Cc1cc(=O)oc2cc(OCC#N)ccc12 and report it. 3.55

====

Assay: yeast transport mutant growth inhibition pilot in 384-well plates, post-Golgi transport modulator project (AID 636)
Conditions: absorbance 615 nm, about 18 h, hits give high values
Measured inhibition values are reported for all entries that follow.
Numeric answer only, unit % assumed.

COC(=O)CSC1=NS(=O)(=O)c2ccccc21 ... -7.43

Find the measured inhibition of CCOCCn1c(CN2CCN(CC)CC2)nc2c1c(=O)n(C)c(=O)n2C and report it. -1.6

Find the measured inhibition of Cc1cccnc1-n1c(CCN2C(=O)c3ccccc3C2=O)nc2ccccc2c1=O and report it. 1.28

Find the measured inhibition of CCOC(=O)c1ccc2[nH]c3c(c2c1)CN(C)CC3 and report it. -4.27

Find the measured inhibition of COc1cccc(C(=O)Nc2cc(C)c3c(=O)oc4ccccc4c3n2)c1 and report it. -6.53

====

Test: S. cerevisiae growth inhibition in permissive medium (OD615), pilot counter-assay for S. cerevisiae lifespan shortening project, permissive growth control (AID 705)
Conditions: OD615, 24 h, at 10 µM, hits give high values
observable: growth inhibition (%)
Numeric answer only, unit % assumed.

Here are 4 compounds together with their reported answers.
O=C(c1ccc(=O)[nH]c1)N(Cc1ccco1)C1(C(=O)NC2CCCC2)CCCCC1 ... 2.31
CC1(C)CC(=O)C(C=NCCO)=C(O)C1 ... 5.08
CCOc1ccc(NC(=O)CN(c2cc(C)cc(C)c2)S(=O)(=O)c2c(C)noc2C)cc1 ... -19.5
CCOC(=O)N1CCN(C(=O)CSc2nnc(-c3cccs3)o2)CC1 ... 0.955

Find the measured growth inhibition of CC(C)C(CO)NC(=O)CC(=O)NC(CO)C(C)C (stereo not given) and report it. -4.75

====

Experiment: RAM signaling pathway blockade in yeast – S. cerevisiae, Pdr1DBD-CYC8 efflux-inhibited sensitized strain, primary screen (AID 1298);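 note: 0% = DMSO untreated cells without growth and 100% = 10 µM 1-NA-PP1 full growth; higher means more yeast growth rescued from 5-FOA killing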
Details: S. cerevisiae cbk1-as DSE1-URA3 strain, 5-FOA growth OD615, 2 d; at 50 µM; hits give high values
Active and inactive are the calls of the source.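 Rule for the calls: active = RAM network inhibition above 8.4% in each of two replicates, 3 SD over the compound average; inconclusive = above 8.4% inhibition in only one replicate; inactive = 8.4% inhibition or less in each replicate.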
observable: RAM network inhibition

Here are 5 compounds together with their reported answers.
CCCN1CC23C=CC(O2)C(C(=O)O)C3C1=O (stereo not given) ... -1.04% (inactive)
c1csc(Cc2nc3ccccc3[nH]2)c1 ... -0.01% (inactive)
CC1CCN(C(=O)Cn2cc3c(n2)CCCC3)CC1 ... 3.48% (inactive)
Oc1c(C(c2cccs2)N2CCOCC2)sc2ncnn12 (stereo not given) ... 5.2% (inactive)
CN(CC(=O)N1CCCCC1)S(=O)(=O)c1cccc2cccnc12 ... 1.14% (inactive)

Find the measured RAM network inhibition of CCCCn1c(CNC(C)=O)nc2ccccc21 and report it. 1.93% (inactive)

Find the measured RAM network inhibition of O=C(Nc1cccnc1)Nc1ccccn1 and report it. 0.51% (inactive)

Find the measured RAM network inhibition of C=CCSc1nc(N)c2c(C)c(C)sc2n1 and report it. 8.79% (inactive)

Find the measured RAM network inhibition of CC(C)CCNC(=O)CCS(=O)(=O)c1cccc2nonc12 and report it. 4.52% (inactive)

Find the measured RAM network inhibition of COc1cc2c(cc1OC)C(c1ccc(C)o1)CC(=O)N2 (stereo not given) and report it. 0.73% (inactive)
